Below, each entry is listed alongside its reported pIC50.
tested on: Panc10.05-G12D; test: Viability assay (CellTiterBlue, 72 hr) Panc10.05; type: cell-based; conditions: Homo sapiens, Panc1005, GI50, CellTiterBlue, Panc10.05 K-Ras G12D, read-out: 72 hr Cell Viability Panc10.05 (G12D)
In plain terms, pIC50 is the concentration in mol/L turned into minus its base-10 logarithm.

Look over these answered cases.
• CC(C)c1cc(C(=O)Nc2nc(-c3ccc4c(c3)CCC(=O)N4)cs2)n(C)n1 = 5.70
• Cc1nc(C)c(C(=O)Nc2nc(-c3ccc4c(c3)CCC(=O)N4Cc3cccc4cnccc34)cs2)o1 = 5.40
• Cc1nc(C2CCCCC2)oc1C(=O)Nc1nc(-c2ccc3c(c2)CCC(=O)N3)cs1 = 4.80
• Cc1nn(-c2ccccc2)c(C)c1C(=O)Nc1nc(-c2ccc3c(c2)CCC(=O)N3)cs1 = 5.00
• CCc1nc(C)c(C(=O)Nc2nc(-c3ccc4c(c3)CCC(=O)N4)cs2)o1 = 4.72
• Cc1nc(C)c(C(=O)Nc2nc(-c3ccc4c(c3)CCC(=O)N4CC3CCCOC3)cs2)o1 (stereo not shown) = 5.70
• Cn1cc(C(=O)Nc2nc(-c3ccc4c(c3)CCC(=O)N4)cs2)c(C(C)(C)C)n1 = 5.15
• COCCN1C(=O)CCc2cc(-c3csc(NC(=O)c4oc(C)nc4C)n3)ccc21 = 5.40

Here is the next item to consider.
Prompt: // lookup pIC50 | system=Panc10.05-G12D | key= Cc1nc(CN)sc1C(=O)Nc1nc(-c2ccc3c(c2)CCC(=O)N3)cs1
Response: 4.92

These measurements were taken from patent US10344026B2.
